- target or test system: ROCK1 (Homo sapiens, UniProt Q13464)
- Construct: T7 phage fusion (kinase-tagged phage) or DNA tag for qPCR detection
- Sequence (Q13464 whole entry, the tested form may be a part): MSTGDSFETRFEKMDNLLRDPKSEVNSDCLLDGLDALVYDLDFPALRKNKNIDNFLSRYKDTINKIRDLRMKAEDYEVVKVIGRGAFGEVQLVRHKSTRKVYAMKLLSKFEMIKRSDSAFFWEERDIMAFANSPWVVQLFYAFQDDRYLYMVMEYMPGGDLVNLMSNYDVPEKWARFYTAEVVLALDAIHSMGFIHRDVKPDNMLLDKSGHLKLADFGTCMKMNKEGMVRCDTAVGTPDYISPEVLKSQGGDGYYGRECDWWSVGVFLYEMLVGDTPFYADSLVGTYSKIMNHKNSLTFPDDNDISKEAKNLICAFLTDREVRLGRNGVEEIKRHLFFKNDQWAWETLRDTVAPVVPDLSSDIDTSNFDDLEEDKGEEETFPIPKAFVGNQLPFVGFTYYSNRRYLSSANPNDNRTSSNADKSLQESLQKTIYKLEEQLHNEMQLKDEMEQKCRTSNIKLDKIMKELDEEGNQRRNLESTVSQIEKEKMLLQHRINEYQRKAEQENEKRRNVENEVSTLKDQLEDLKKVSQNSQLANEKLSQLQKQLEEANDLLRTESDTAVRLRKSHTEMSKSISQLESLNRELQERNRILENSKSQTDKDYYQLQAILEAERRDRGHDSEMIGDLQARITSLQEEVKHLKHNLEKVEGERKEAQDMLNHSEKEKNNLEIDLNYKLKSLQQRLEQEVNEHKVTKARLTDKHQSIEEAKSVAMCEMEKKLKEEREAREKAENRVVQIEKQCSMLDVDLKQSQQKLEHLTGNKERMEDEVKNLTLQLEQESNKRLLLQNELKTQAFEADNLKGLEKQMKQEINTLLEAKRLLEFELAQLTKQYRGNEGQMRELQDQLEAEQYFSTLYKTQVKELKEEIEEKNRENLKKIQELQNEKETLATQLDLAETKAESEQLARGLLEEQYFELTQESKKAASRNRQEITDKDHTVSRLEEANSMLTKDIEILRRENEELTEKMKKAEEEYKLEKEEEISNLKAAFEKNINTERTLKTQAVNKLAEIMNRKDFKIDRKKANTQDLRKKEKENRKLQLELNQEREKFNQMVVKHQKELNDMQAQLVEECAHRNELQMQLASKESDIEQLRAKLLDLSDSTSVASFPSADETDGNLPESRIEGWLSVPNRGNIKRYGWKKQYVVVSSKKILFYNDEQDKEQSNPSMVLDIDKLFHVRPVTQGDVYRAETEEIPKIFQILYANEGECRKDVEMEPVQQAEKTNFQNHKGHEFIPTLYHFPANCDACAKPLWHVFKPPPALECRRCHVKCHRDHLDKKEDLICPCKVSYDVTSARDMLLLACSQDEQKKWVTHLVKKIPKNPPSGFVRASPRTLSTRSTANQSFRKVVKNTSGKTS
- assay comment: ROCK1 kinase binding affinity, DiscoverX KINOMEscan KdELECT
- condition context: 11-point 3-fold dilution
measured attribute: Kd

// field: Kd; key: CC1(CNc2nccc(-c3nccc(C#Cc4ccc5[nH]ncc5c4)n3)n2)CCCO1 (centres unmarked) ; value = 1 to 9.9 µM

Measured Kd of `C(#Cc1ccnc(-c2ccnc(NC[C@@H]3CCOC3)n2)n1)c1ccc2[nH]ncc2c1` : 1 to 9.9 µM

Reported Kd of `Clc1ccc(CNc2nccc(-c3nccc(C#Cc4ccc5[nH]ncc5c4)n3)n2)nc1` : 0.1 to 0.99 µM

Record `Fc1ccnc(CNc2nccc(-c3nccc(C#Cc4ccc5[nH]ncc5c4)n3)n2)c1` , field Kd: 1 to 9.9 µM

Record `Cc1cnc(CNc2nccc(-c3nccc(C#Cc4ccc5[nH]ncc5c4)n3)n2)nc1` . Reported Kd: 1 to 9.9 µM

For reference, reported Kd for `FC1(F)Oc2ccc(CNc3nccc(-c4nccc(C#Cc5ccc6[nH]ncc6c5)n4)n3)cc2O1` stands at 10 to 100 µM

Memo: `O=C(CNc1nccc(-c2nccc(C#Cc3ccc4[nH]nc(F)c4c3)n2)n1)N1CCOCC1` , reported Kd: 10 to 100 µM

Entry under test: `CNC(=O)CNc1nccc(-c2nccc(C#Cc3ccc4[nH]ncc4c3)n2)n1` . Its Kd was 1 to 9.9 µM

Value of Kd reported for the compound C(#Cc1ccnc(-c2ccnc(NCC3CCCN3)n2)n1)c1ccc2[nH]ncc2c1 (centres unmarked) is 0.1 to 0.99 µM

Kd for `COc1cc(F)ccc1CNc1nccc(-c2nccc(C#Cc3ccc4[nH]ncc4c3)n2)n1` is 1 to 9.9 µM

---

- target or test system: ROCK1 (Homo sapiens)
- Construct: T7 phage fusion (kinase-tagged phage) or DNA tag for qPCR detection
- assay comment: ROCK1 kinase binding affinity, DiscoverX KINOMEscan KdELECT
- condition context: 11-point 3-fold dilution
The entries below are paired with their reported Kd.

// below: answered compounds
compound: COC(C)(C)CNc1nccc(-c2nccc(C#Cc3ccc4[nH]ncc4c3)n2)n1
Kd: 1 to 9.9 µM
//
compound: O=S1(=O)CC[C@H](Nc2nccc(-c3nccc(C#Cc4ccc5[nH]ncc5c4)n3)n2)C1
Kd: 0.1 to 0.99 µM
//
compound: O[C@H]1CC[C@@H](Nc2nccc(-c3nccc(C#Cc4ccn5cnnc5c4)n3)n2)CC1
Kd: 10 to 100 µM
//
compound: O=C(O)[C@H]1CC[C@@H](Nc2nccc(-c3nccc(C#Cc4ccc5[nH]ncc5c4)n3)n2)CC1
Kd: 0.1 to 0.99 µM
//
compound: CN(C)C(=O)CNc1nccc(-c2nccc(C#Cc3ccc4[nH]ncc4c3)n2)n1
Kd: 0.1 to 0.99 µM
//
compound: C(#Cc1ccnc(-c2ccnc(N[C@H]3CCOC3)n2)n1)c1ccc2[nH]ncc2c1
Kd: 1 to 9.9 µM
//
compound: CC(Nc1nccc(-c2nccc(C#Cc3ccc4[nH]ncc4c3)n2)n1)c1ccc(F)cn1 (centres unmarked)
Kd: 1 to 9.9 µM

Let us examine a further case.
The compound listed as `C(#Cc1ccnc(-c2ccnc(N[C@@H]3CCOC3)n2)n1)c1ccc2[nH]ncc2c1` shows Kd equal to 1 to 9.9 µM
